target: human RXFP1 (Homo sapiens, UniProt Q9HBX9); construct: expressed in transfected cells; assay: RXFP1 cAMP assay (hRXFP1 HEK293 cAMP assay, HTRF); assay type: cell-based; conditions: HEK293 cells stably expressing human RXFP1, 30 min at room temperature, read-out: cAMP hRXFP1 HEK293 Assay EC50
Sequence (Q9HBX9 whole entry): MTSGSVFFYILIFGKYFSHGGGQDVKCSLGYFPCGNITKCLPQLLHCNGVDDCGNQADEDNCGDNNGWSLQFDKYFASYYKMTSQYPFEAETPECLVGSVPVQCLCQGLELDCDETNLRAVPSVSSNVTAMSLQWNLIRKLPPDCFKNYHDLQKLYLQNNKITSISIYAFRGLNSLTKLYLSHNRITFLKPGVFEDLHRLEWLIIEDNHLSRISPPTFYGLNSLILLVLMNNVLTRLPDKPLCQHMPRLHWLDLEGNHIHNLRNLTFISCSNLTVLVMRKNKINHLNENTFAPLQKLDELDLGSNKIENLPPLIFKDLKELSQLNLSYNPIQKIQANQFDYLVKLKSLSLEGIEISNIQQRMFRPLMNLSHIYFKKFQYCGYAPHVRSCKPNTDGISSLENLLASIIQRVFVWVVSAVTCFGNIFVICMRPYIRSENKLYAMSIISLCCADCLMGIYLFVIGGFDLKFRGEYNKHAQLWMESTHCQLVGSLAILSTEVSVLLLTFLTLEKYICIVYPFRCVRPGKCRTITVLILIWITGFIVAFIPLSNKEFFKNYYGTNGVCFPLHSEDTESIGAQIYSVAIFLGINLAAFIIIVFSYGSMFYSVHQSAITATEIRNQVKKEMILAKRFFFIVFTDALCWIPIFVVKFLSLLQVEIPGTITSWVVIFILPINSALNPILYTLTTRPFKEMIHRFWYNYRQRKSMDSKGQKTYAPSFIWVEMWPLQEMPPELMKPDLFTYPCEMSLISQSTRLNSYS
Entries and their measured pEC50 follow.
// returns pEC50 (minus log10 of molar concentration), number only

Check out these entries, answers already filled in.
{"columns": ["compound", "pEC50"],
 "data": [
  ["COc1ccc(-c2cc(C(O)C(=O)O)ccc2F)cc1C(=O)NC1C2CCC(/C2=C/C2CCCC2)C1C(=O)Nc1ccc(F)c(C(F)(F)F)c1 (stereo not drawn) [compound 355]", 8.52],
  ["COc1ccc(-c2cc(C(C)CC(=O)O)ccc2F)cc1C(=O)N[C@H]1[C@@H](C(=O)Nc2ccc(F)c(C(F)(F)F)c2)[C@H]2CC[C@@H]1/C2=C\\C1CC1 (stereo partly drawn) [compound 888]", 8.57],
  ["COc1ccc(-c2ncc(CO)s2)cc1C(=O)N[C@H]1[C@@H](C(=O)Nc2ccc(F)c(C(F)(F)F)c2)[C@H]2CC[C@@H]1/C2=C\\C1CCCC1 [compound 750]", 8.46],
  ["COCCOC1(C2CC(c3ccc(OC)c(C(=O)N[C@H]4[C@@H](C(=O)Nc5ccc(F)c(C(F)(F)F)c5)[C@H]5CC[C@@H]4/C5=C\\C4CC4)c3)=NO2)CC1 (single isomer, unassigned) [compound 558]", 7.35],
  ["COc1ccc(-c2cc(C(=O)O)ccc2F)cc1C(=O)N[C@@H]1C2CCC(/C2=C/c2ccoc2)[C@@H]1C(=O)Nc1ccc(F)c(C(F)(F)F)c1 (stereo partly drawn) [compound 159]", 7.68]
]}

Looking up COc1cc(F)c(F)cc1C(=O)N[C@@H]1C2CCC(/C2=C/c2cccc(C(F)(F)F)c2)[C@@H]1C(=O)Nc1ccc(F)c(C(F)(F)F)c1 (stereo partly drawn) [compound 25] , I see its pEC50 listed as 6.70

----------
target: human RXFP1 (Homo sapiens, UniProt Q9HBX9); construct: expressed in transfected cells; experiment: RXFP1 cAMP assay (hRXFP1 HEK293 cAMP assay, HTRF); assay type: cell-based; details: HEK293 cells stably expressing human RXFP1, 30 min at room temperature, read-out: cAMP hRXFP1 HEK293 Assay EC50
assay.readout: EC50
Answer format: number, then unit.

{"columns": ["compound", "value.measured"],
 "data": [
  ["CC/C=C1\\C2CCC1[C@H](C(=O)Nc1ccc(F)c(C(F)(F)F)c1)[C@@H]2NC(=O)c1cc(-c2cc(C(=O)NC)ccc2F)ccc1OC (stereo partly drawn) [compound 156]", "11 nM"]
]}

Looking up O=C(N[C@H]1[C@@H](C(=O)Nc2ccc(F)c(C(F)(F)F)c2)[C@H]2CC[C@@H]1/C2=C\C1CC1)c1cccc(C2=NOC3COCC23)c1 (single isomer, unassigned) [compound 647] , I see its EC50 listed as 241 nM

Looking up COc1ccc(C2=NO[C@H]3COC[C@@H]23)cc1C(=O)N[C@H]1[C@@H](C(=O)Nc2ccc(F)c(C(F)(F)F)c2)[C@H]2CC[C@@H]1/C2=C\C1CCCC1 [compound 819] , I see its EC50 listed as 2.3 nM

----------
biological target: human RXFP1 (Homo sapiens); construct: expressed in transfected cells; test: RXFP1 cAMP assay (hRXFP1 HEK293 cAMP assay, HTRF); format: cell-based; conditions: HEK293 cells stably expressing human RXFP1, 30 min at room temperature, read-out: cAMP hRXFP1 HEK293 Assay EC50
assay.readout: pEC50
// returns pEC50 (minus log10 of molar concentration), number only

Check out these entries, answers already filled in.
{"columns": ["compound", "pEC50"],
 "data": [
  ["COc1ccc(C2=NO[C@H]3CC(CO)C[C@@H]23)cc1C(=O)N[C@H]1[C@@H](C(=O)Nc2ccc(F)c(C(F)(F)F)c2)[C@H]2CC[C@@H]1/C2=C\\CC(C)C (some centres unmarked)", 8.60],
  ["COc1ccc(-c2ccc(C(CC(=O)O)C(F)(F)F)cc2F)cc1C(=O)N[C@H]1[C@@H](C(=O)Nc2ccc(F)c(C(F)(F)F)c2)[C@H]2CC[C@@H]1/C2=C\\C1CC1 (some centres unmarked) [compound 884]", 9.00],
  ["COc1cc(F)c(F)cc1C(=O)N[C@@H]1C2CCC(/C2=C/c2cccc(C#N)c2)[C@@H]1C(=O)Nc1ccc(F)c(C(F)(F)F)c1 (some centres unmarked)", 6.05],
  ["COc1ccc(-c2cc(C(=O)O)ccc2F)cc1C(=O)N[C@H]1[C@@H](CNc2ccc(F)c(C(F)(F)F)c2)[C@H]2CC[C@@H]1/C2=C\\C1CC1", 6.55]
]}

Query compound follows.
Form field, pEC50 with human RXFP1 (Homo sapiens), item COc1ccc(C2=NO[C@@H]3[C@@H](O)CCN23)cc1C(=O)N[C@H]1[C@@H](C(=O)Nc2ccc(F)c(C(F)(F)F)c2)[C@H]2CC[C@@H]1/C2=C\C1CC1 : 8.30

----------
Entries and their measured pEC50 follow.
target: human RXFP1 (Homo sapiens); construct: expressed in transfected cells; test: RXFP1 cAMP assay (hRXFP1 HEK293 cAMP assay, HTRF); format: cell-based; conditions: HEK293 cells stably expressing human RXFP1, 30 min at room temperature, read-out: cAMP hRXFP1 HEK293 Assay EC50
// returns pEC50 (minus log10 of molar concentration), number only

{"columns": ["molecule", "target.or.test.system", "pEC50"],
 "data": [
  ["COc1ccc(-c2ccc(C(CC(=O)O)C(F)(F)F)cc2F)cc1C(=O)N[C@H]1[C@@H](C(=O)Nc2ccc(F)c(C(F)(F)F)c2)[C@H]2CC[C@@H]1/C2=C\\C1CCCC1 (stereo partly drawn) [compound 891]", "human RXFP1 (Homo sapiens)", 8.43]
]}

Form field, pEC50 with human RXFP1 (Homo sapiens), item COc1ccc(C2=NOC3CC(O)(C(F)(F)F)CC23)cc1C(=O)N[C@H]1[C@@H](C(=O)NCC(C)(C)C)[C@H]2CC[C@@H]1/C2=C\C1CC1 (stereo partly drawn) : 8.47

Form field, pEC50 with human RXFP1 (Homo sapiens), item COc1ccc(C2=NOC(CO)C2)cc1C(=O)N[C@@H]1C2CCC(/C2=C/C2CC2)[C@@H]1C(=O)Nc1ccc(F)c(C(F)(F)F)c1 (stereo partly drawn) [compound 381] : 7.70

Form field, pEC50 with human RXFP1 (Homo sapiens), item O=C(N[C@H]1[C@@H](C(=O)Nc2ccc(F)c(C(F)(F)F)c2)[C@H]2CC[C@@H]1/C2=C\C1CC1)c1cc(C2=NOC3CC(CO)CC23)ccc1OCCCF (stereo partly drawn) [compound 788] : 8.37

Form field, pEC50 with human RXFP1 (Homo sapiens), item COc1ccc(-c2cc(C(OC(=O)NC3CCC3)C(F)F)ccc2F)cc1C(=O)N[C@@H]1C2CCC(/C2=C/C2CC2)[C@@H]1C(=O)Nc1ccc(F)c(C(F)(F)F)c1 (stereo partly drawn) : 9.00

Form field, pEC50 with human RXFP1 (Homo sapiens), item COc1ccc(C2=NOC3(CCOCC3)C2)cc1C(=O)N[C@@H]1C2CCC(/C2=C/C2CC2)[C@@H]1C(=O)Nc1ccc(F)c(C(F)(F)F)c1 (stereo partly drawn) : 7.15

----------
target: human RXFP1 (Homo sapiens); construct: expressed in transfected cells; assay: RXFP1 cAMP assay (hRXFP1 HEK293 cAMP assay, HTRF); format: cell-based; conditions: HEK293 cells stably expressing human RXFP1, 30 min at room temperature, read-out: cAMP hRXFP1 HEK293 Assay EC50
Entries and their measured pEC50 follow.
// returns pEC50 (minus log10 of molar concentration), number only

Check out these entries, answers already filled in.
{"columns": ["compound", "pEC50"],
 "data": [
  ["COc1ccc(C#N)cc1C(=O)N[C@H]1[C@@H](C(=O)Nc2ccc(F)c(C(F)(F)F)c2)[C@H]2CC[C@@H]1C2=C(C)C [compound 99]", 6.27],
  ["COc1ccc(-c2cc([C@H](OC(=O)NC3CCC3)C(F)(F)F)ccc2F)cc1C(=O)N[C@@H]1C2CCC(/C2=C/C(C)C)[C@@H]1C(=O)Nc1ccc(F)c(C(F)(F)F)c1 (stereo partly drawn) [compound 925]", 8.28]
]}

Query compound follows.
Form field, pEC50 with human RXFP1 (Homo sapiens), item COc1ccc(-c2cc(C3=NOC(C(=O)O)C3)ccc2F)cc1C(=O)N[C@H]1[C@@H](C(=O)Nc2ccc(F)c(C(F)(F)F)c2)[C@H]2CC[C@@H]1/C2=C\C1CCCC1 (stereo partly drawn) [compound 945] : 8.27

----------
molecular target: human RXFP1 (Homo sapiens, UniProt Q9HBX9); construct: expressed in transfected cells; assay: RXFP1 cAMP assay (hRXFP1 HEK293 cAMP assay, HTRF); format: cell-based; settings: HEK293 cells stably expressing human RXFP1, 30 min at room temperature, read-out: cAMP hRXFP1 HEK293 Assay EC50
assay.readout: pEC50
// returns pEC50 (minus log10 of molar concentration), number only

{"columns": ["molecule", "pEC50"],
 "data": [
  ["COc1cc(F)c(F)cc1C(=O)N[C@@H]1C2CCC(/C2=C/Cc2ccccc2)[C@@H]1C(=O)Nc1ccc(F)c(C(F)(F)F)c1 (stereo partly drawn) [compound 57]", 6.26],
  ["COc1ccc(C2=NO[C@H]3CC(CO)C[C@@H]23)cc1C(=O)N[C@H]1[C@@H](C(=O)Nc2ccc(F)c(C(F)(F)F)c2)[C@H]2CC[C@@H]1/C2=C\\CCF (stereo partly drawn) [compound 814]", 8.92],
  ["COc1ccc(-c2ccc(N3CCOCC3)nc2)cc1C(=O)N[C@@H]1C2CCC(/C2=C/C2CC2)[C@@H]1C(=O)Nc1ccc(F)c(C(F)(F)F)c1 (stereo partly drawn) [compound 250]", 7.92],
  ["O=C(N[C@H]1[C@@H](C(=O)Nc2ccc(F)c(C(F)(F)F)c2)[C@H]2CC[C@@H]1/C2=C\\C1CC1)c1cc(C2=NOC3CC(CO)CC23)cc(F)c1OCC(F)F (stereo partly drawn) [compound 789]", 8.36]
]}

Looking up COc1cc(F)c(F)cc1C(=O)N[C@@H]1C2CCC(/C2=C/c2ccccc2)[C@@H]1C(=O)Nc1cccc(S(C)(=O)=O)c1 (stereo partly drawn) [compound 139] , I see its pEC50 listed as 6.26

Looking up COc1ccc(N2CCCC2=O)cc1C(=O)N[C@H]1[C@@H](C(=O)Nc2ccc(F)c(C(F)(F)F)c2)[C@H]2CC[C@@H]1/C2=C\C1CC1 [compound 636] , I see its pEC50 listed as 6.71
